Test: soluble on expression in E. coli; label from the status in PepcDB or PDB records

{"columns": ["RECORD SEQUENCE", "soluble on expression in E. coli"],
 "data": [
  ["MNDRLCFEVHDNKGYFVFPDTWFGPLLGEFEEVLDAYDADEISETSYINKLRRLAQREPDFIDIHAHLAYAFLEQNAPRKALNAALKGLAAGNRIIPESFCGEIIWMHPENRPYLRALYAAILANVHLQRHQDAVMLTDKILAYNPEDNQGARWLLGSELLRTGDHERAFSVLKEHADEFSPYWYELGLLHFLNGEHVKAATAFRHGFATNTYIAEMLCGNLHPFPLAVWHDFSGSLDTAEDYYATYSPLWGQYPEALLFVNWLYNHSSVLHERSEIIKCAEMLIQEDDFEICESILRQQEHLWKRIDKTLSEEIVQKCRNMNGEYIWPWILPFSAAGMKHSSIQYQMAGDPLEHHHHHH", "soluble"],
  ["MPSKLFSRRSFVTTACAGLAALALPLPAVALTEARAASLVNEVVTEINRVIASGKSENAMIRDFEKLFVRYGDVPIMARYALGPDARTASPAQLKSFTQAFQGYISRKYGKRFREFIGGEVTVKTARKIKAGYEVKTSVKLQGQAPFDVTFLVSDKSGKDKFFNMFIEGVNLLLTERTEIGSMLDRRKGDLNALIRDLASAGLEHHHHHH", "soluble"]
]}

---

Assay: soluble on expression in E. coli; label from the status in PepcDB or PDB records
ENDPOINT NAME: soluble on expression in E. coli

{"columns": ["RECORD SEQUENCE", "OBS VALUE"],
 "data": [
  ["MTGVVTASKGLNVRKEANTSSQIIGILNSGESVEIIGEENGFYKITYKGQEAYASKNYINIFDGNSLEHHHHHH", "not soluble"],
  ["MGSDKIHHHHHHMFNSERLCIARERRGLTQRALAEAAGLTSKTISNYEKAGIFDAIASDSMERISAVLEYPIEFFLDRDVPSLTPEAVSFRAMTKLSAQKRDSALGAGKLAQELSAWIDGQFKLPKPNVPDSSFDGYSEPERAARTVREAWGIGELSISNIVHLLEANGIRVFSLAENCVEVDAFSFWMDEKPFVLLNTMKTPERSRFDAAHELGHLVLHKHSCNNGRQAEQDADRFASAFLMPERSILASVPRMPRLEQLILLKKNWKVSLAALVRRTFDVGLSTEWHYRQLSIELNRRGYRTGEPQGMPEREKSLILEKVFSALRTQGIKRTEILGQLRFPADEVSALTFNNRFFMEAITGDGPQSYIERKQPPQLSLVK", "not soluble"],
  ["MRKLVIPKYYGRPSIGLALFGCTNRPFYHVCVFPDRALGRRYEGNILEQVGTFDPLPNQKNEKLVALNFGRLKYWIGERNAHISVPVLELLGERRNCLSGLFPIHPKSFIRAKDNRALIADQQLKVAAEAAEAEKVAQEQASTGAAATSHPQ", "not soluble"]
]}

---

Assay: soluble on expression in E. coli; label from the status in PepcDB or PDB records
ENDPOINT NAME: soluble on expression in E. coli

// below: answered sequences
{"columns": ["RECORD SEQUENCE", "soluble on expression in E. coli"],
 "data": [
  ["MEYRLKAYYREGEKPSALRRAGKLPGLMYNRHLNRKVYVDLVEFDKVFRQASIHHVIVLELPDGQSLPTLVRQVNLDKRRRRPEHVDFFVLSDEPVEMYVPLRFVGTPAGVRAGGVLQEIHRDILVKVSPRNIPEFIEVDVSGLEIGDSLHASDLKLPPGVELAVSPEETIAAVVPPEDVEKLAEEAAAEVAEPEVIKKGKEEEEE", "soluble"],
  ["MIADWLEQNGYPISSQVLKTEMSGNYMESAEKHVENGEKIDNLLRSQLKIDIRDGTGDDFERKSIKSIGAGRPFAKINMVDKQRAPLKITPLSDEEFRKTMRKRMEMERERLARLSNQAEDDSDDSSSSSDSSTSSASSSSEEKLTFSDILGKPTAAGAEKMIELSQIPNAWGPSKSALVTDDVASTSDPLPAIFNAHLPPLSMGRPPLTKSAKSREIDAIFGSDNVDYDLEDFEQDGVAKKKSILPMEKKKEEAKPKEQELVEPLVLSEGESIDELEDFDTGLLSSGGSDYSF", "not soluble"],
  ["MVADMAGSSEKFKIVLKPVTAEAVPSGDAVKVTTGGVQIDVYPEREAGGPERGLTPLGLLAASLASCEVLMSRLVGRMLGYNGFDVRVAVTADVQVAEGLRSLSIRYVFKGVDIDTANLIVSKVKELCPVYNSLVRNGVSVEENVEVE", "soluble"],
  ["MGSDKIHHHHHHAELAELFEVSVRTIYRDIETINRAGIPIVTSQGSGGGIGIMETYRLEREWLKEEELFAIASALQSVSSMYEPVSHSTAYQKIKHLIPEQSTQAFKHQTEKWFIDMTAWGHTEDQKTLREKISAAIDRLLTISFTYTSASGETLLRETEPYTLVCKAGHWYLYAYCLVRNDFRFFKLNRMKDLAILHQTFIRKDIQLDTLPWDKSWYQKDRLTELVILVQPSARQRIGEWFGYDVLHCCEEDEICQAVISLPEDQWLIGFLLQFGKDIEVLQPLHIRDKVKETIHHMQKIYET", "not soluble"],
  ["MAHHHHHHMPLCASIPATVDTDTNTRALYLDDLDKCMKNFSSALASTMNAYQNLLTAFDQVAQVYGNVAQECGDEVRKPVGEFRDGMRDLKDKGGFETFNHEIHVGTIAVIEPVKSDLKKALKSLKCLRLKQKEYDAVRYDLEQTEKSYAKKNKPLVTSSSYKKTLAKRDKVKTSYDASREAFGEEINALQATTKSVLLQSLNNYLHCTAAFCGQLEATMNGYRTDVDHHGSTTFTNDQMDKLKEKAEAESMARRAKRKSEASNPFQTGYDVTSNNSHRNLPSVDDGLYQKKDSLVDTESVNRYPNAEFAPPMQNGGDDNFTLREQYDDGAPGDADDVNPLVDANNDE", "soluble"]
]}

For MAHHHHHHMIYLIDNEDMIYIEFYRKKDCTFVYKFFNDTLPTGSTLSTSDVSAEYANIKYEINNNSCTVYSCDYSCLLKHKDYITIINNVLDKNLSDEILENYKNEKWLMYTKNDEEKLNLVIESNTLLRIKGKLRHEIIFGIPKKKKIQMQDKLMDRKNSYLVIFRFIREDNIKNFVTQKIKNKIPQNERQEKDCVPINVNEYTSEKLEKMYVLDVYNQIALHFGHTRAYEQEENVVGNRKFDSQDIFVPWYFQQQYKTEGYDDDAEGEGEEEPEKENEKEKEESHKFKPVKKGNMFKILKMKFFFFFYLLHNFRNIYIYNL , what is its reported soluble on expression in E. coli? soluble

For MKMSELEKMLKGEHFDGASAEIEALRSQAGRLKLEINQSLDEAERYALQRELFGHLGHKSCVQPPFHCEFGKTIRIGDHTFINMNVVMLDGAPITIGDHVLIGPSTQFYTASHSLDYRRRQAWETICKPIVIEDDVWIGGNVVINQGVTIGARSVVAANSVVNQDVPPDTLVGGTPARILRSLKDPAESMAE , what is its reported soluble on expression in E. coli? not soluble

For MDYLVKALAYDGKVRAYAARTTDMVNEGQRRHGTWPTASAALGRTMTASLMLGAMLKGDDKLTVKIEGGGPIGAIVADANAKGEVRAYVSNPQVHFDLNEQGKLDVRRAVGTNGTLSVVKDLGLREFFTGQVEIVSGELGDDFTYYLVSSEQVPSSVGVGVLVNPDNTILAAGGFIIQLMPGTDDETITKIEQRLSQVEPISKLIQKGLTPEEILEEVLGEKPEILETMPVRFHCPCSKERFETAILGLGKKEIQDMIEEDGQAEAVCHFCNEKYLFTKEELEGLRDQTTR , what is its reported soluble on expression in E. coli? soluble

For MTIREEGLIVKDQVLSCYLKGKRCLFVIVKILKDSSNSFLCTVQNKNGDQYVKKWFRKHENNEKLGRPTFKEVEKDWKENKESFMYPNVKALY , what is its reported soluble on expression in E. coli? not soluble

For MDPSLLRERELFKKRALSTPVVEKRSASSESSSSSSKKKKTKVEHGGSSGSKQNSDHSNGSFNLKALSGSSGYKFGVLAKIVNYMKTRHQRGDTHPLTLDEILDETQHLDIGLKQKQWLMTEALVNNPKIEVIDGKYAFKPKYNVRDKKALLRLLDQHDQRGLGGILLEDIEEALPNSQKAVKALGDQILFVNRPDKKKILFFNDKSCQFSVDEEFQKLWRSVTVDSMDEEKIEEYLKRQGISSMQESGPKKVAPIQRRKKPASQKKRRFKTHNEHLAGVLKDYSDITSSK , what is its reported soluble on expression in E. coli? not soluble

For MVEVESDSVAERDRSSFLAGHDAIRLAKSCVDSPPERWYAALYQVYADLTKLRCWSNVEVVYSDSATFPTGLLGPLFEEDSMVQELHSAQCILGSERACFHVRCCIVGSPPSGRAINALSPQSETRTEERIITSRREPEVVIAVPMHAMLKLSNLDQALRMSSHIEGIVKNRHVADSSASTHSTDRQAGSRKSSVIFGFVDEDTTTAYYRIREGACESNDRREFSTDDIASCLAQERT , what is its reported soluble on expression in E. coli? not soluble
